B1: VH:VL chains; a variant is named by its letters at X, in order (parent)
chain 1: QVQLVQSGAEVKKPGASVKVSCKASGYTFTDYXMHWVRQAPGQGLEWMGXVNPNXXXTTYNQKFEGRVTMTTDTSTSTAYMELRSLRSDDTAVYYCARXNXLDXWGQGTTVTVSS
chain 2: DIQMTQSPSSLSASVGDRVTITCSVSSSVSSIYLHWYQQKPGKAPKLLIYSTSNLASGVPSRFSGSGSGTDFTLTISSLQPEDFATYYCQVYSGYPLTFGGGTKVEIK

variants of: B1; experiment: yeast display scFab, FACS + sequencing; settings: with MET
The other results are listed elsewhere or left out. No count for the full screen is at hand.
Test readout: antigen binding call

Some entries whose results are on file:
>  <Mutation annotation>
VRRGDVGV

>  <antigen binding call>
no binding

$$$$
>  <Mutation annotation>
SETTDAGD

>  <antigen binding call>
no binding

$$$$
>  <Mutation annotation>
VRGKDSLD

>  <antigen binding call>
binds

$$$$
>  <Mutation annotation>
VRRRGSWV

>  <antigen binding call>
binds

$$$$
>  <Mutation annotation>
YTTRDDSD

>  <antigen binding call>
no binding

$$$$

Could you share which antigen binding call value was measured for SETGNVWF ?
no binding

Could you share which antigen binding call value was measured for VRAGDSLD ?
binds

Could you share which antigen binding call value was measured for YRTRDSVA ?
binds

Could you share which antigen binding call value was measured for YREGGSVD ?
binds
